Listed here: items and their measured normalised response.
- Test system: BT-549
- METHOD: normalised response (% of control), CellTiter-Glo; higher = more viable cells (100 = DMSO, 0 = benzethonium chloride kill control)
- CONDITIONS_USED: incubation time: 72 h
The reply should read as a number followed by its unit.

Examples with answers:
Ask: Record request: normalised response value, item CN(Cc1cnc2nc(N)nc(N)c2n1)c1ccc(C(=O)N[C@@H](CCC(=O)O)C(=O)O)cc1 [Methotrexate] (5 nM)
Reply: 117%

Ask: Repeat for the following molecule: O=[N+]([O-])c1ccc2c(c1)S(=O)(=O)C=C2 [Stattic] (5000 nM)
Reply: 0.47%

Ask: Follow-up entry: CC(C)n1cnc2c(NCCc3ccc(O)cc3)nc(-c3csc4ccccc34)nc21 [StemRegenin 1] (1 nM)
Reply: 96.7%

Ask: Cool, now CC1(C)CCC(c2ccc(Cl)cc2)=C(CN2CCN(c3ccc(C(=O)NS(=O)(=O)c4ccc(N[C@H](CCN5CCOCC5)CSc5ccccc5)c(S(=O)(=O)C(F)(F)F)c4)cc3)CC2)C1 [Navitoclax] (10 nM)
Reply: 99.5%

Ask: Further, for CCNC(=O)CCC/C=C\C[C@@H]1[C@@H](/C=C/[C@@H](O)CCc2ccccc2)[C@H](O)C[C@@H]1O [Bimatoprost] (5.5 nM) ?
Reply: 91.7%

More entries:
Ask: Quick one: normalised response for CCN(CC)CCCC(C)Nc1ccnc2cc(Cl)ccc12 (configuration not stated) [Chloroquine] (10 nM) ?
Reply: 107%

Ask: Quick one: CC(C)n1cnc2c(NCCc3ccc(O)cc3)nc(-c3csc4ccccc34)nc21 [StemRegenin 1] (10 nM)
Reply: 92.2%

====

Property: normalised response; scope: individual compounds
- System: CAL-120
- METHOD: normalised response (% of control), CellTiter-Glo; higher = more viable cells (100 = DMSO, 0 = benzethonium chloride kill control)
- CONDITIONS_USED: incubation time: 72 h
Quick note: give the figure in %, leave out the unit.

Ask: What value of normalised response has been recorded for this entry: CCNC(=O)c1noc(-c2cc(C(C)C)c(O)cc2O)c1-c1ccc(CN2CCOCC2)cc1 [NVP-AUY922] (0.1 nM)
Reply: 107

Ask: Another compound to check: CC1(COc2ccc3c(c2)ncn3-c2ccc3cccc(N4CCC(N)CC4)c3n2)COC1 [Crenolanib] (10 nM)
Reply: 97.8

Ask: And for CC(C)C[C@H](NC(=O)[C@@H](COC(C)(C)C)NC(=O)[C@H](Cc1ccc(O)cc1)NC(=O)[C@H](CO)NC(=O)[C@H](Cc1c[nH]c2ccccc12)NC(=O)[C@H](Cc1cnc[nH]1)NC(=O)[C@@H]1CCC(=O)N1)C(=O)N[C@@H](CCCNC(=N)N)C(=O)N1CCC[C@H]1C(=O)NNC(N)=O [Goserelin] (1000 nM) ?
Reply: 106

Ask: Note, next up: CCNC(=O)c1noc(-c2cc(C(C)C)c(O)cc2O)c1-c1ccc(CN2CCOCC2)cc1 [NVP-AUY922] (100 nM)
Reply: 47.5

Could you now look at the following compound, please?
Ask: Can you share its normalised response? I mean this compound: COc1cc(Nc2c(C#N)cnc3cc(OCCCN4CCN(C)CC4)c(OC)cc23)c(Cl)cc1Cl [Bosutinib] (1000 nM)
Reply: 83.8
